biological target: human TRPV4 (Homo sapiens, UniProt Q9HBA0); construct: host or cells: tetracycline-inducible Flp-In T-REx 293 cells; assay: Hypotonicity-induced Ca2+ influx (Fluo-4, FDSS); type: cell-based; settings: Flp-In T-REx 293 cells stably expressing human TRPV4, compounds listed by potency bin (<10 nM Tables 96-1/96-2, <3 nM Table 97)
Sequence (Q9HBA0 whole entry): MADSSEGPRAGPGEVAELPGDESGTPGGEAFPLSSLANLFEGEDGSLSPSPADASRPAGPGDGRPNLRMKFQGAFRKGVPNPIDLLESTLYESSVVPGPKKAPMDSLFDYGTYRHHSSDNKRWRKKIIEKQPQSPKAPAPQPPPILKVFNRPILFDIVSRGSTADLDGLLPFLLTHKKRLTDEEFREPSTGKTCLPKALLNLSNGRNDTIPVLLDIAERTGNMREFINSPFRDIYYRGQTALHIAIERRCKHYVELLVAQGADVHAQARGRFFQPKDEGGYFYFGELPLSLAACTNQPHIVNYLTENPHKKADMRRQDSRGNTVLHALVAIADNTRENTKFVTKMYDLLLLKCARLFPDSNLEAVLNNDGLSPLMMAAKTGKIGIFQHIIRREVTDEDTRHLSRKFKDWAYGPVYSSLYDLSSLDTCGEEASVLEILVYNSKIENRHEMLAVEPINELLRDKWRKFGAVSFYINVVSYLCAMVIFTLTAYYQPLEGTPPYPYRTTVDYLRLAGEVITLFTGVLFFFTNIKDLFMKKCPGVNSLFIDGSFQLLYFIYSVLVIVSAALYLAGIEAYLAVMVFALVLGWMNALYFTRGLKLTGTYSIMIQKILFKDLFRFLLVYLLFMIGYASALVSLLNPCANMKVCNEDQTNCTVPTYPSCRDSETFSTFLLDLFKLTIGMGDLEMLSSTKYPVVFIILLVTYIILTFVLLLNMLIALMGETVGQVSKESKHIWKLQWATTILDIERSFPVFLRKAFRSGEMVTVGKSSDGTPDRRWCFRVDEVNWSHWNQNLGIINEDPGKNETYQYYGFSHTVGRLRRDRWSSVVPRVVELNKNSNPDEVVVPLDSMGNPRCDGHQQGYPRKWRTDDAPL
experimental_readout: IC50

Looking up Cn1ncc2c(-c3cccc(C4(c5nc6c(c(=O)[nH]5)CN(C(=O)[C@H](O)c5cccc(C(F)(F)F)c5)CCC6)CC4)c3)cccc21 , I see its IC50 listed as < 0.01 µM

Looking up COCCn1cc(-c2cccc(C3(c4nc5c(c(=O)[nH]4)CN(C(=O)[C@H](O)c4cccc(C(F)(F)F)c4)CCC5)CC3)c2)cn1 , I see its IC50 listed as < 0.01 µM

Looking up Cc1ccc(-c2cccc([C@@H](O)C(=O)N3CCCc4nc(C5(c6ccccc6)CC5)[nH]c(=O)c4C3)c2)cc1Cl , I see its IC50 listed as < 0.003 µM

Looking up CC(C)c1cncc(C2(c3nc4c(c(=O)[nH]3)CN(C(=O)C(O)c3cccc(-c5cccc(OC(F)(F)F)c5)c3)CCC4)CC2)c1 (centres unmarked) , I see its IC50 listed as < 0.01 µM

Looking up CC(C)c1cccc(C2(c3nc4c(c(=O)[nH]3)CN(C(=O)[C@H](O)c3cccc(-c5ccnc(C(F)(F)F)c5)c3)CCC4)CC2)c1 , I see its IC50 listed as < 0.003 µM

Looking up CNc1ccc(-c2cccc(C3(c4nc5c(c(=O)[nH]4)CN(C(=O)[C@H](O)c4cccc(C(F)(F)F)c4)CCC5)CC3)c2)cn1 , I see its IC50 listed as < 0.01 µM

Looking up O=C([C@H](O)c1cccc(C(F)(F)F)c1)N1CCc2nc(C3(c4cc(C5CCCC5)cs4)CC3)[nH]c(=O)c2C1 , I see its IC50 listed as < 0.003 µM

Looking up O=C(C(O)c1cccc(-c2cccc(OC(F)(F)F)c2)n1)N1CCc2nc(C3(c4ccccc4)CC3)[nH]c(=O)c2C1 (centres unmarked) , I see its IC50 listed as < 0.01 µM

Looking up O=C(Cc1cccc(-c2cccc(Cl)c2)c1)N1CCCc2nc(C3(c4ccccc4)CC3)[nH]c(=O)c2C1 , I see its IC50 listed as < 0.01 µM

Looking up O=C([C@H](O)c1cccc(C(F)(F)F)c1)N1CCCc2nc(C3(c4cccc(-c5ccc(OCc6ccccn6)cc5)c4)CC3)[nH]c(=O)c2C1 , I see its IC50 listed as < 0.003 µM

Looking up O=C([C@H](O)c1cccc(-c2cccc(C(F)(F)F)c2)c1)N1CCCc2nc(C3(c4cccs4)CC3)[nH]c(=O)c2C1 , I see its IC50 listed as < 0.01 µM

Looking up O=C([C@H](O)c1cccc(Cl)c1)N1CCCc2nc(C3(c4cccc(-c5ccc(Cl)cc5)c4)CC3)[nH]c(=O)c2C1 , I see its IC50 listed as < 0.01 µM

Looking up O=C([C@H](O)c1cccc(C(F)(F)F)c1)N1CCCc2nc(C3(c4cccc(-c5cnc(-c6ccccc6)s5)c4)CC3)[nH]c(=O)c2C1 , I see its IC50 listed as < 0.003 µM

Looking up O=C([C@H](O)c1cccc(Cl)c1)N1CCc2nc(C3(c4cccc(C5CCCC5)c4)CC3)[nH]c(=O)c2C1 , I see its IC50 listed as < 0.01 µM
